Data origin: the supplement of paper PMC10515830

System: Danio rerio larvae (5 dpf)
protocolNotes: difference in excitability vs DMSO (percentage points); higher = more excitable than DMSO
statedConditions: 10 µM; exposure time 6 h
Counter-ions that a name gives are not always drawn.
parameterMeasured: difference in excitability

Query: Identify measured difference in excitability associated with COCCCC/C(=N\OCCN)c1ccc(C(F)(F)F)cc1 [Fluvoxamine (maleate)]
Response: 13.2

Query: Please give measured difference in excitability of the following entry: NS(=O)(=O)c1cc2c(cc1C(F)(F)F)NCNS2(=O)=O [Hydroflumethiazide]
Response: 2.46

Query: Using the record for CN(C)C/C=C/C(=O)Nc1cc2c(Nc3ccc(F)c(Cl)c3)ncnc2cc1O[C@H]1CCOC1 [Afatinib (maleate)] , state its measured difference in excitability.
Response: 20.1

Query: Give reported difference in excitability value for CCc1nn(CCCN2CCN(c3cccc(Cl)c3)CC2)c(=O)n1CCOc1ccccc1 [Nefazodone (hydrochloride)]
Response: 9.32

Query: Supply measured difference in excitability of C#C[C@]1(O)CC[C@H]2[C@@H]3CCc4cc(OC)ccc4[C@H]3CC[C@@]21C in your reply.
Response: 23

Query: Retrieve difference in excitability measured for CCCCCCOC(=O)CCC(=O)CN [Hexaminolevulinate (hydrochloride)] and print it.
Response: 5.6

Query: For the compound N[C@@H]1CONC1=O , give its measured difference in excitability value.
Response: 6.37

Query: Input NC(=O)C(c1ccccc1)(c1ccccc1)[C@@H]1CCN(CCc2ccc3c(c2)CCO3)C1 [Darifenacin (hydrobromide)] , output reported difference in excitability.
Response: 15.5

###

Tested on: Danio rerio larvae (5 dpf)
protocolNotes: difference in combined optomotor response to red, green and blue moving lines vs DMSO (percentage points); higher = stronger optomotor response than DMSO
statedConditions: 10 µM; exposure time 6 h
Structures can show the parent of a compound that is named as a salt.
Assign 1.0 whenever difference does not fall below 5; assign 0.0 whenever it does.

Query: Hi team, for NC(=O)N1c2ccccc2C=Cc2ccccc21 [Carbamazepine] , is the recorded difference at or above 5?
Response: 1.0

Query: Hi, just wondering whether CS(=O)(=O)c1cccc(C[C@H](NC(=O)c2c(Cl)cc3c(c2Cl)CCN(C(=O)c2ccc4ccoc4c2)C3)C(=O)O)c1 shows difference of 5 or higher.
Response: 1.0

Query: Has Cc1ccc(C(=O)c2ccc(CC(=O)O)n2C)cc1 [Tolmetin (sodium salt hydrate)] a recorded difference greater than or equal to 5?
Response: 1.0

Query: Entry Cc1ccc(Cl)c(Nc2ccccc2C(=O)O)c1Cl [Meclofenamate (sodium salt)] : is its difference no less than 5?
Response: 0.0

Query: Please indicate if the recorded difference for CC(=O)O[C@H]1C(=O)[C@@]2(C)[C@H]([C@H](OC(=O)c3ccccc3)[C@]3(O)C[C@H](OC(=O)[C@H](O)[C@@H](NC(=O)c4ccccc4)c4ccccc4)C(C)=C1C3(C)C)[C@]1(OC(C)=O)CO[C@@H]1C[C@@H]2O meets or exceeds 5.
Response: 0.0

Query: // inclusive: difference at least 5? input: O=c1ccn([C@@H]2O[C@H](CO)[C@@H](O)[C@H]2O)c(=O)[nH]1
Response: 0.0

Query: Does C[C@H]1COc2c(N3CCN(C)CC3)c(F)cc3c(=O)c(C(=O)O)cn1c23 have a reported difference of at least 5?
Response: 0.0
